Reference source: the supplement of paper PMC10307832

relative viability reference
Tested on: HCC-366
EXPERIMENTAL_DETAILS: relative viability (nuclei count vs DMSO), 5 days (fraction); higher = more cells survive
ASSAY_CONTEXT: first compound 0.2 µM
Reply: number alone, nothing else.

Solved cases (3 shown):
COMPOUND	TARGET_OR_TEST_SYSTEM	relative viability
COCC1(CO)C(=O)C2CCN1CC2 (centres undefined) [PRIMA-1MET] + Cc1cc(Nc2cc(N3CCN(C)CC3)nc(Sc3ccc(NC(=O)C4CC4)cc3)n2)n[nH]1 [Tozasertib] (partner 0.1 µM)	HCC-366	0.109
COCC1(CO)C(=O)C2CCN1CC2 (centres undefined) [PRIMA-1MET] + NC(=O)Nc1cc(-c2cccc(F)c2)sc1C(=O)N[C@H]1CCCNC1 [AZD7762] (partner 0.2 µM)	HCC-366	0.3
COCC1(CO)C(=O)C2CCN1CC2 (centres undefined) [PRIMA-1MET] + C[C@]1(O)C[C@@H](c2nc(-c3ccc4ccc(-c5ccccc5)nc4c3)c3c(N)nccn32)C1 [Linsitinib] (partner 1 µM)	HCC-366	0.773

Pending compound:
Which relative viability value is on record for COCC1(CO)C(=O)C2CCN1CC2 (centres undefined) [PRIMA-1MET] + N=C(N)NC(=N)NCCc1ccccc1 [Phenformin] (partner 250 µM) ?
0.651

---

System: NCI-H2009
EXPERIMENTAL_DETAILS: relative viability (nuclei count vs DMSO), 5 days (fraction); higher = more cells survive
ASSAY_CONTEXT: first compound 1 µM
REPORTED_PROPERTY: relative viability

Below are worked cases with known answers.
COMPOUND	TARGET_OR_TEST_SYSTEM	relative viability
O=c1cc(N2CCOCC2)oc2c(-c3cccc4c3sc3ccccc34)cccc12 + CS(=O)(=O)N1CCN(Cc2cc3nc(-c4cccc5[nH]ncc45)nc(N4CCOCC4)c3s2)CC1 [Pictilisib] (partner 1 µM)	NCI-H2009	0.813
CCN(CC)CCCCNc1ncc2cc(-c3cc(OC)cc(OC)c3)c(NC(=O)NC(C)(C)C)nc2n1 + C[C@@H](Oc1cc(-c2cnn(C3CCNCC3)c2)cnc1N)c1c(Cl)ccc(F)c1Cl [Crizotinib] (partner 1 µM)	NCI-H2009	0.953
O=c1cc(N2CCOCC2)oc2c(-c3cccc4c3sc3ccccc34)cccc12 + CC1(C)CCC(c2ccc(Cl)cc2)=C(CN2CCN(c3ccc(C(=O)NS(=O)(=O)c4ccc(N[C@H](CCN5CCOCC5)CSc5ccccc5)c(S(=O)(=O)C(F)(F)F)c4)cc3)CC2)C1 [Navitoclax] (partner 0.5 µM)	NCI-H2009	1.05

The record that follows has no relative viability shown yet.
What value of relative viability has been reported for the following compound? CCN(CC)CCCCNc1ncc2cc(-c3cc(OC)cc(OC)c3)c(NC(=O)NC(C)(C)C)nc2n1 + Cc1nc(NC(=O)N2CCC[C@H]2C(N)=O)sc1-c1ccnc(C(C)(C)C(F)(F)F)c1 [Alpelisib] (partner 2 µM)
1.16

---

Tested on: NCI-H1734
EXPERIMENTAL_DETAILS: relative viability (nuclei count vs DMSO), 5 days (fraction); higher = more cells survive
ASSAY_CONTEXT: first compound 1 µM
REPORTED_PROPERTY: relative viability
Respond using a number only.

COMPOUND	OBSERVED_MEASUREMENT
O=c1cc(N2CCOCC2)oc2c(-c3cccc4c3sc3ccccc34)cccc12 + Cc1nc(Nc2ncc(C(=O)Nc3c(C)cccc3Cl)s2)cc(N2CCN(CCO)CC2)n1 [Dasatinib] (partner 0.075 µM)	0.415
O=c1cc(N2CCOCC2)oc2c(-c3cccc4c3sc3ccccc34)cccc12 + COc1cc2c(Oc3ccc(NC(=O)C4(C(=O)Nc5ccc(F)cc5)CC4)cc3F)ccnc2cc1OCCCN1CCOCC1 [Foretinib] (partner 0.25 µM)	0.78

GET /values?readout=relative viability&item= O=c1cc(N2CCOCC2)oc2c(-c3cccc4c3sc3ccccc34)cccc12 + COc1cccc2cc(-c3nc([C@H]4CC[C@H](C(=O)O)CC4)n4ncnc(N)c34)[nH]c12 [OSI-027] (partner 0.5 µM)
0.609

Next record, please: CCN(CC)CCCCNc1ncc2cc(-c3cc(OC)cc(OC)c3)c(NC(=O)NC(C)(C)C)nc2n1 + Cc1nc(Nc2ncc(C(=O)Nc3c(C)cccc3Cl)s2)cc(N2CCN(CCO)CC2)n1 [Dasatinib] (partner 0.075 µM)
0.436

---

Test system: H3255
EXPERIMENTAL_DETAILS: relative viability (nuclei count vs DMSO), 5 days (fraction); higher = more cells survive
ASSAY_CONTEXT: first compound 0.03162 µM
Friendly reminder: relative viability below 1 is 1 (yes), at or above is 0 (no).

COMPOUND	CLASS_ASSIGNMENT
CCN(CC)CCCCNc1ncc2cc(-c3cc(OC)cc(OC)c3)c(NC(=O)NC(C)(C)C)nc2n1 + Cc1cc(Nc2cc(N3CCN(C)CC3)nc(Sc3ccc(NC(=O)C4CC4)cc3)n2)n[nH]1 [Tozasertib] (partner 0.1 µM)	1 (yes)
CCN(CC)CCCCNc1ncc2cc(-c3cc(OC)cc(OC)c3)c(NC(=O)NC(C)(C)C)nc2n1 + C[C@]1(O)C[C@@H](c2nc(-c3ccc4ccc(-c5ccccc5)nc4c3)c3c(N)nccn32)C1 [Linsitinib] (partner 1 µM)	0 (no)
O=c1cc(N2CCOCC2)oc2c(-c3cccc4c3sc3ccccc34)cccc12 + Cc1nc(NC(=O)N2CCC[C@H]2C(N)=O)sc1-c1ccnc(C(C)(C)C(F)(F)F)c1 [Alpelisib] (partner 2 µM)	1 (yes)

Hi there! Is relative viability for O=c1cc(N2CCOCC2)oc2c(-c3cccc4c3sc3ccccc34)cccc12 + COc1cccc2cc(-c3nc([C@H]4CC[C@H](C(=O)O)CC4)n4ncnc(N)c34)[nH]c12 [OSI-027] (partner 0.5 µM) below 1, do you know?
1 (yes)

Also O=c1cc(N2CCOCC2)oc2c(-c3cccc4c3sc3ccccc34)cccc12 + N=C(N)NC(=N)NCCc1ccccc1 [Phenformin] (partner 250 µM) ?
1 (yes)

---

System: NCI-H322M
EXPERIMENTAL_DETAILS: relative viability (nuclei count vs DMSO), 5 days (fraction); higher = more cells survive
ASSAY_CONTEXT: first compound 0.253 µM
The reader will find reported relative viability values listed item by item below.
Enter the number alone.

MOLECULE	REPORTED_PROPERTY	OBSERVED_MEASUREMENT
COc1nc(C)cnc1NS(=O)(=O)c1cccnc1-c1ccc(-c2nnco2)cc1 [Zibotentan] + NC(=O)Nc1cc(-c2cccc(F)c2)sc1C(=O)N[C@H]1CCCNC1 [AZD7762] (partner 0.2 µM)	relative viability	0.551
O=c1cc(-c2cccc3c2Sc2ccccc2S3)oc(N2CCOCC2)c1 + CC(=O)c1c(C)c2cnc(Nc3ccc(N4CCNCC4)cn3)nc2n(C2CCCC2)c1=O [Palbociclib] (partner 0.5 µM)	relative viability	0.474
O=c1cc(-c2cccc3c2Sc2ccccc2S3)oc(N2CCOCC2)c1 + CC1(C)CCC(c2ccc(Cl)cc2)=C(CN2CCN(c3ccc(C(=O)NS(=O)(=O)c4ccc(N[C@H](CCN5CCOCC5)CSc5ccccc5)c(S(=O)(=O)C(F)(F)F)c4)cc3)CC2)C1 [Navitoclax] (partner 0.5 µM)	relative viability	1.3
COc1nc(C)cnc1NS(=O)(=O)c1cccnc1-c1ccc(-c2nnco2)cc1 [Zibotentan] + CS(=O)(=O)N1CCN(Cc2cc3nc(-c4cccc5[nH]ncc45)nc(N4CCOCC4)c3s2)CC1 [Pictilisib] (partner 1 µM)	relative viability	0.559
O=c1cc(-c2cccc3c2Sc2ccccc2S3)oc(N2CCOCC2)c1 + O=C(CCCCCCC(=O)Nc1ccccc1)NO [Vorinostat] (partner 1 µM)	relative viability	1.01
COc1nc(C)cnc1NS(=O)(=O)c1cccnc1-c1ccc(-c2nnco2)cc1 [Zibotentan] + CC(=O)c1c(C)c2cnc(Nc3ccc(N4CCNCC4)cn3)nc2n(C2CCCC2)c1=O [Palbociclib] (partner 0.5 µM)	relative viability	0.408

Which relative viability value belongs to O=c1cc(-c2cccc3c2Sc2ccccc2S3)oc(N2CCOCC2)c1 + O=C(c1cc(Cc2n[nH]c(=O)c3ccccc23)ccc1F)N1CCN(C(=O)C2CC2)CC1 [Olaparib] (partner 8 µM) ?
0.751

Moving on to the next molecule: O=c1cc(-c2cccc3c2Sc2ccccc2S3)oc(N2CCOCC2)c1 + COc1cc2c(Oc3ccc(NC(=O)C4(C(=O)Nc5ccc(F)cc5)CC4)cc3F)ccnc2cc1OCCCN1CCOCC1 [Foretinib] (partner 0.25 µM)
1

Do the same for O=c1cc(-c2cccc3c2Sc2ccccc2S3)oc(N2CCOCC2)c1 + CC(=O)Nc1cccc(-n2c(=O)n(C3CC3)c(=O)c3c(Nc4ccc(I)cc4F)n(C)c(=O)c(C)c32)c1 [Trametinib] (partner 0.02 µM) please
0.558
